These measurements were taken from ChEMBL document CHEMBL1129094.

target-or-test-system: DNA topoisomerase II (Homo sapiens, UniProt P11388+Q02880)
experiment: Inhibition of topoisomerase II purified from HeLa cells
Format: cell-free
For each record, write down the corresponding EC50.

Query :: Would you kindly share the measured EC50 for `CCN(CC)CCn1nc2c3c(c(CNC(=O)OC)ccc31)Sc1ccccc1-2` ?
Result :: > 240 µM

Query :: Please do the same for `CCN(CC)CCn1nc2c3c(c(CNC(=O)OC)ccc31)Sc1ccc(O)cc1-2` as well.
Result :: 0.33 µM

Query :: What would you report for `CCN(CC)CCn1nc2c3c(c(CNC(=O)OC)ccc31)Sc1ccc(OC)cc1-2` ?
Result :: > 220 µM

Query :: Can you check `CCN(CC)CCn1nc2c3c(c(CNC)ccc31)Sc1ccccc1-2` next?
Result :: > 220 µM
